Reference source: the supplement of paper PMC6555819

test system: LXRa:RXRa (NR concentration 270 nM, RXRa partner concentration 90 nM); assay: PBM binding z-score (relative to random genomic background probes); higher = stronger binding; sequences stand for … in GC…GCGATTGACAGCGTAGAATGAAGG
Category key, based on recorded PBM binding z-score: low-valued = under 0.8, mid-valued = from 0.8 up to 3, high-valued = 3 and over

These recorded examples may help you get a feel for the data.
>  <RESIDUE_SEQUENCE>
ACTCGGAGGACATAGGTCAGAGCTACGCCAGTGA

>  <CATEGORY_LABEL>
mid-valued

$$$$
>  <RESIDUE_SEQUENCE>
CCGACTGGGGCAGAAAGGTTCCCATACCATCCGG

>  <CATEGORY_LABEL>
low-valued

$$$$
>  <RESIDUE_SEQUENCE>
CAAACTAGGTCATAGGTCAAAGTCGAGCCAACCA

>  <CATEGORY_LABEL>
high-valued

$$$$
>  <RESIDUE_SEQUENCE>
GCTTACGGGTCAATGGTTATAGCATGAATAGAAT

>  <CATEGORY_LABEL>
mid-valued

$$$$
>  <RESIDUE_SEQUENCE>
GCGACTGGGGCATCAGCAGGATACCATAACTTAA

>  <CATEGORY_LABEL>
low-valued

$$$$
>  <RESIDUE_SEQUENCE>
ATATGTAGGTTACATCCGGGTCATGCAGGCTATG

>  <CATEGORY_LABEL>
high-valued

$$$$
>  <RESIDUE_SEQUENCE>
TCTTGTAGATAAAAGGTTAAGAAAGCCGAAGCCT

>  <CATEGORY_LABEL>
mid-valued

$$$$
>  <RESIDUE_SEQUENCE>
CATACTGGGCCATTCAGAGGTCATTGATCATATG

>  <CATEGORY_LABEL>
high-valued

$$$$
>  <RESIDUE_SEQUENCE>
ATCTCTAGGTAACCAAGTACAGTGAATGCCGAAC

>  <CATEGORY_LABEL>
low-valued

$$$$
>  <RESIDUE_SEQUENCE>
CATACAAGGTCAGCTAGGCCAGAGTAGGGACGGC

>  <CATEGORY_LABEL>
high-valued

$$$$

## Task Lab note: which band did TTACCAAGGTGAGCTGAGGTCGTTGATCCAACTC land in?
## Result mid-valued

## Task Lab note: which band did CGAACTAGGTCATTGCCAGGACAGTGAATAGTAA land in?
## Result mid-valued

## Task Lab note: which band did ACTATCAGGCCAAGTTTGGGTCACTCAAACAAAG land in?
## Result low-valued

## Task Lab note: which band did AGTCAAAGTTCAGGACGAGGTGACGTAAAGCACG land in?
## Result high-valued
